TARGET SYSTEM: Sodium-dependent serotonin transporter (Homo sapiens, UniProt P31645)
Sequence (P31645 whole entry): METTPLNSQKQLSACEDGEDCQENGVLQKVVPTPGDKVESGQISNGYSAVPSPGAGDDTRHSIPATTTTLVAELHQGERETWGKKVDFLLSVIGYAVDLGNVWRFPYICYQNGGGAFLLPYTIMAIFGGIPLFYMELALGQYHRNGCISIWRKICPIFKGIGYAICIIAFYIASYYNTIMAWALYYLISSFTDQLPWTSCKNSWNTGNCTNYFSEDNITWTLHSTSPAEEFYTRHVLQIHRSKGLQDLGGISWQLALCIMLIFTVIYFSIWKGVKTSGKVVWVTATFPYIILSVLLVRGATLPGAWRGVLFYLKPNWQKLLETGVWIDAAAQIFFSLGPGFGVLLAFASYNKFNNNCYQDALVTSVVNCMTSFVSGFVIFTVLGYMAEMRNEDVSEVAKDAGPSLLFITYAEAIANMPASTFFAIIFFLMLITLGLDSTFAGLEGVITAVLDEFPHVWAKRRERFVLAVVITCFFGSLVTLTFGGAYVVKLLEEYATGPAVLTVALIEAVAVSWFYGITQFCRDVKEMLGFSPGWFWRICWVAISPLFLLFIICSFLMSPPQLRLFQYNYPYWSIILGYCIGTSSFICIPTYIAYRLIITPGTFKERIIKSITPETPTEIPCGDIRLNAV
pIC50: −log10 of the molar value.
PROPERTY: pIC50

> print(dat)
                           smiles.structure  property  observed.measurement
1  O=C(O)c1ccc(CN2CCC(CN[C@@H]3C[C@H]3c3ccccc3)CC2)cc1     pIC50                  4.10
2         c1ccc([C@@H]2C[C@H]2NC2CCNCC2)cc1     pIC50                  5.70

* * *

TEST DETAILS: AUC (0 to last) in mouse blood at 5 mg/kg, po by HPLC/MS/MS analysis
Type: ADME, organism-based
PROPERTY: AUC(0-t)

> print(dat)
                                   molecule  observed.measurement
1  O=C(O)c1ccc(CN2CCC(CN[C@@H]3C[C@H]3c3ccccc3)CC2)cc1 [GSK2879552]           853 ng·h/mL

Source listed as ChEMBL document CHEMBL5705903.
